Listing of entries alongside the reported GI50.
System: EKVX
measurement-description: NCI tumour cell line growth inhibition, 48 h
Active and inactive are the calls of the source. Rule as the data show it: active = GI50 up to about 1.1 µM and inactive = higher.
readout-name: GI50

[[record]]
compound = "O=[N+]([O-])c1ccc(CSC2=C(c3ccc(Cl)cc3)S/C(=C3\\SC(SCc4ccc([N+](=O)[O-])cc4)=C(c4ccc(Cl)cc4)S3)S2)cc1"
readout_name = "GI50"
assay_result = "> 100 µM (inactive)"

[[record]]
compound = "C/C=C1/CN2CCc3c([nH]c4ccccc34)[C@@H]2C[C@@H]1Cc1nccc2c1[nH]c1cc(O)ccc12"
readout_name = "GI50"
assay_result = "2.07 µM (inactive)"

[[record]]
compound = "CCc1cc(Cc2cc(Cl)c(NC(=O)C(=O)C3NC(=O)NC3=O)c(CC)c2)cc(Cl)c1NC(=O)C(=O)C1NC(=O)NC1=O (centres undefined)"
readout_name = "GI50"
assay_result = "> 100 µM (inactive)"

[[record]]
compound = "COC(=O)CC1N/C(=N\\C#N)N(CCc2c[nH]c3ccccc23)C1=O (centres undefined)"
readout_name = "GI50"
assay_result = "83 µM (inactive)"

[[record]]
compound = "CC1(C)C(CBr)=[N+]([O-])C(C)(C)N1O"
readout_name = "GI50"
assay_result = "> 5.6 µM (inactive)"

[[record]]
compound = "CC(C)=CCC/C(C)=C/CC/C(C)=C/CC/C(C)=C/CC/C(C)=C\\CC/C(C)=C/CC/C(C)=C/CC/C(C)=C/Cc1cc(O)ccc1O"
readout_name = "GI50"
assay_result = "2.31 µM (inactive)"

[[record]]
compound = "O=C(Nc1ccc(Cl)cc1)c1cc(S(=O)(=O)Nc2nnc3c(Cl)cc(C(F)(F)F)cn23)c(S)cc1Cl"
readout_name = "GI50"
assay_result = "> 100 µM (inactive)"

[[record]]
compound = "CN/C(=N\\n1cnnc1)OC"
readout_name = "GI50"
assay_result = "> 100 µM (inactive)"

[[record]]
compound = "CCOc1cccc2c1N[S@@](=O)S2"
readout_name = "GI50"
assay_result = "> 100 µM (inactive)"


* * *

System: PC-3
measurement-description: NCI tumour cell line growth inhibition, 48 h
The source made the active and inactive calls. Rule as the data show it: active = GI50 up to about 1.1 µM and inactive = higher.
Possible outcomes: yes (1) = active, no (0) = inactive

[[record]]
compound = "COc1cccc2c1C(=O)c1c(O)c3c(c(O)c1C2=O)C[C@@](O)(C(=O)CO)CC3OC1CC(N)C(OC2CCCCO2)C(C)O1 (stereo partly specified)"
assigned_category = "yes (1)"

[[record]]
compound = "Cc1ccc(C(=O)C(Cl)C(Cl)c2ccc(C)cc2)cc1 (stereo unspecified)"
assigned_category = "no (0)"

[[record]]
compound = "Cc1ccc2c(c1)C(=O)c1[nH]c3ccc(F)cc3c1CO2"
assigned_category = "no (0)"

[[record]]
compound = "COc1cc(C2c3cc4c(cc3OC(NNC(N)=O)C2C)OCO4)cc(OC)c1O (stereo unspecified)"
assigned_category = "no (0)"

[[record]]
compound = "O=c1ccc2nc3ccc(O)cc3oc-2c1"
assigned_category = "no (0)"

[[record]]
compound = "C1=C(c2ccccc2)NC2=N[C@H]3CCCC[C@@H]3N2C1c1ccccc1 (stereo partly specified)"
assigned_category = "no (0)"

[[record]]
compound = "CS(=O)(=O)N1CC(CCl)c2ccc([N+](=O)[O-])cc21 (stereo unspecified)"
assigned_category = "no (0)"

[[record]]
compound = "CC(=O)c1cc2c(s1)C(=O)c1ccccc1C2=O"
assigned_category = "no (0)"

[[record]]
compound = "COC(=O)C(/C(=N/NC(N)=O)C(=O)Nc1ccc(C)cc1)c1nc2ccc([N+](=O)[O-])cc2nc1O (stereo unspecified)"
assigned_category = "no (0)"

[[record]]
compound = "CCOC(=O)CCC(NC(=O)c1ccc(CNc2nc3ccccc3nc2C(=O)OCC)cc1)C(=O)OCC (stereo unspecified)"
assigned_category = "no (0)"

[[record]]
compound = "CCCCC(=O)Nc1ccc2c(C)cc(-c3ccc(-c4cc(-c5ccc(C)cc5)cc(-c5ccc(-c6cc(C)c7ccc(NC(=O)CCCC)nc7n6)cc5)n4)cc3)nc2n1"
assigned_category = "no (0)"


* * *

Tested on: OVCAR-5
measurement-description: NCI tumour cell line growth inhibition, 48 h
Activity calls are given as the source filed them. No stated cut-off is given here; in the data, active = GI50 up to about 1.1 µM and inactive = higher.
readout-name: GI50

[[record]]
compound = "CCOC(=O)CNC(=O)OCc1ccccc1"
target_of_assay = "OVCAR-5"
readout_name = "GI50"
assay_result = "> 100 µM (inactive)"

[[record]]
compound = "CC(=O)C(CN1CCOCC1)C(c1ccccc1)c1c(O)c2ccccc2oc1=O (stereo unspecified)"
target_of_assay = "OVCAR-5"
readout_name = "GI50"
assay_result = "> 100 µM (inactive)"

[[record]]
compound = "Cc1nc(N)nc(CCC(=O)Nc2cccc(C(F)(F)F)c2)c1-c1ccc(Cl)cc1"
target_of_assay = "OVCAR-5"
readout_name = "GI50"
assay_result = "> 100 µM (inactive)"

[[record]]
compound = "COc1cc2nc(Sc3c([N+](=O)[O-])ncn3C)[nH]c2cc1OC"
target_of_assay = "OVCAR-5"
readout_name = "GI50"
assay_result = "98.6 µM (inactive)"

[[record]]
compound = "CN1N=C2c3ccccc3CC[C@H]2C1c1cccc(O)c1 (stereo partly specified)"
target_of_assay = "OVCAR-5"
readout_name = "GI50"
assay_result = "> 100 µM (inactive)"

[[record]]
compound = "CC(=O)c1cc2c(s1)C(=O)c1ccccc1C2=O"
target_of_assay = "OVCAR-5"
readout_name = "GI50"
assay_result = "5.25 µM (inactive)"


* * *

Listing of entries alongside the reported GI50.
Tested on: Hs-578T
measurement-description: NCI tumour cell line growth inhibition, 48 h
Activity calls are given as the source filed them. No stated cut-off is given here; in the data, active = GI50 up to about 1.1 µM and inactive = higher.
readout-name: GI50

[[record]]
compound = "CCOC(=O)c1cc(C2CCN(c3ccccc3)C2=O)c(C(=O)/C=C(/C)O)[nH]1 (stereo unspecified)"
assay_result = "93.8 µM (inactive)"

[[record]]
compound = "C/C(=N\\NC(N)=S)c1sc(-n2nc(-c3ccccc3)cc2-c2ccccc2)nc1C"
assay_result = "> 100 µM (inactive)"

[[record]]
compound = "Nc1ncc(Cl)c(NCC2(CO)CC(CCc3ccccc3)C2)n1 (stereo unspecified)"
assay_result = "> 100 µM (inactive)"

[[record]]
compound = "O=c1cc(NNc2ccc3ccccc3c2)[nH]c(=S)[nH]1"
assay_result = "25 µM (inactive)"

[[record]]
compound = "N#C[C@H](c1nc2ccccc2s1)c1nc2ccccc2nc1Cl"
assay_result = "94.6 µM (inactive)"

[[record]]
compound = "CC(C)CNC(=O)Cn1c(-c2ccccc2)cc2ccccc21"
assay_result = "19.5 µM (inactive)"


* * *

Tested on: OVCAR-5
measurement-description: NCI tumour cell line growth inhibition, 48 h
Active and inactive are the calls of the source. No stated cut-off is given here; in the data, active = GI50 up to about 1.1 µM and inactive = higher.
Listing of entries alongside the reported GI50.
readout-name: GI50

[[record]]
compound = "O=C(O)c1nn(-c2ccc(Cl)cc2)c2c1C(=O)c1ccccc1C2=O"
assay_result = "> 100 µM (inactive)"

[[record]]
compound = "Cc1ccc([N+](=O)[O-])cc1S(=O)(=O)Nc1ccc(C2=NNC(c3ccccc3O)C2)cc1 (stereo not drawn)"
assay_result = "32.4 µM (inactive)"

[[record]]
compound = "Cc1cc(N)c2ccccc2[n+]1CCCCCCCCCCNc1cc(C)[n+](CCCCCCCCCC[n+]2c(C)cc(N)c3ccccc32)c2ccccc12"
assay_result = "1.49 µM (inactive)"

[[record]]
compound = "Cc1cc2c(C)n(Cc3ccccc3Cl)nc2c(C(=O)O)c1C"
assay_result = "> 100 µM (inactive)"

[[record]]
compound = "COc1cc(C2c3cc4c(cc3OC(NNC(N)=O)C2C)OCO4)cc(OC)c1O (stereo not drawn)"
assay_result = "6.59 µM (inactive)"

[[record]]
compound = "CCC(C)C1NC(=O)C(NC(=O)c2c3nc4c(C(=O)NC5C(=O)NC(C(C)CC)C(=O)N6CCCC6C(=O)N(C)CC(=O)N(C)C(C(C)C)C(=O)OC5C)ccc(C)c4oc-3c(C)c(=O)c2O)C(C)OC(=O)C(C(C)C)N(C)C(=O)CN(C)C(=O)C2CCCN2C1=O (stereo not drawn)"
assay_result = "11.6 µM (inactive)"

[[record]]
compound = "C/C(=N\\NC(=S)Nc1ccc(Cl)cc1)c1nc2cccnc2[nH]1"
assay_result = "2.29 µM (inactive)"

[[record]]
compound = "CCc1nc(N)nc(N)c1-c1ccc(NC)c([N+](=O)[O-])c1"
assay_result = "17.1 µM (inactive)"


* * *

Test system: TK-10
measurement-description: NCI tumour cell line growth inhibition, 48 h
Activity calls are given as the source filed them. Cut-off read from the data, not from the text of the source: active = GI50 up to about 1.1 µM and inactive = higher.
readout-name: GI50

[[record]]
compound = "O=C(O)c1nn(-c2ccc(Cl)cc2)c2c1C(=O)c1ccccc1C2=O"
assay_result = "> 100 µM (inactive)"

[[record]]
compound = "COc1ccc2[nH]c3c(c2c1)CC(=S)N1CCCC(CC3=O)C1 (stereo not given)"
assay_result = "> 100 µM (inactive)"

[[record]]
compound = "O=C1N/C(=N\\N=C\\c2ccccc2)C(c2ccccc2)O1 (stereo not given)"
assay_result = "24 µM (inactive)"

[[record]]
compound = "CCCCCCCCCC(=O)OCC1OC(n2cc(F)c(=O)[nH]c2=O)C(N)C(OC(=O)CCCCCCCCC)C1O (stereo not given)"
assay_result = "36.1 µM (inactive)"

[[record]]
compound = "COc1cc(OC)c2c(O)c(S(=O)(=O)c3ccc(C)cc3)c(=O)oc2c1"
assay_result = "> 100 µM (inactive)"

